All figures here come from ChEMBL document CHEMBL2375276.

Test system: Staphylococcus aureus
Test: Antibacterial activity against Staphylococcus aureus Smith assessed as growth inhibition by CLSI broth microdilution method
Type: functional
quantity: MIC (µg/mL)
# unit: µg/mL | format: bare number

> print(dat)
                            compound.smiles            test.target  quantitative.result
1  COC(=S)NC[C@H]1CN(c2ccc(N3CCNN(C(=O)CO)CC3)c(F)c2)C(=O)O1  Staphylococcus aureus                 0.25
2  CC(=O)NC[C@H]1CN(c2cc(F)c(N3CCNOCC3)c(F)c2)C(=O)O1  Staphylococcus aureus                    1

Now for another entry.
Give its MIC value. Item: `CC(=O)NC[C@H]1CN(c2cc(F)c(N3CCNN(C(=O)CO)CC3)c(F)c2)C(=O)O1`
1
